system: SF-539 CNS; assay: NCI tumour cell line growth inhibition, 48 h
# key: entry, value: TGI

Look over these answered cases.
>  <compound>
Cc1ccc(Cl)cc1-n1c(C)nc2c(cnn2-c2ccnc3c(C(F)(F)F)cccc23)c1=O

>  <TGI>
> 100 µM

$$$$
>  <compound>
N#Cc1c(NC(=O)c2ccccc2F)sc2c1CCCC2

>  <TGI>
> 25 µM

$$$$

Need TGI, item C/C(=N\NC(=O)C(N)=O)c1c(O)cc(C)oc1=O
> 100 µM

Need TGI, item O=C(N/N=C(\C1=Nc2ccc(Cl)cc2NC1O)C(O)/C=C/c1ccccc1)c1ccncc1 (stereo unspecified)
> 100 µM

Need TGI, item O=c1ccn(/C=C/C(O)C(O)CO)c(=O)[nH]1 (stereo unspecified)
> 100 µM

Need TGI, item COc1ccc2nc3cc(Cl)ccc3c(N3CCN(c4ccnc(N5CCN(C)CC5)n4)CC3)c2c1
3.3 µM

* * *

test system: CAKI-1 renal; assay: NCI tumour cell line growth inhibition, 48 h
# key: entry, value: GI50

Look over these answered cases.
>  <item_smiles>
O=S(=O)(O)c1ccc2cc3nn(-c4ccc(/C=C/c5ccc(-n6nc7cc8ccc(S(=O)(=O)O)cc8cc7n6)cc5S(=O)(=O)O)c(S(=O)(=O)O)c4)nc3cc2c1

>  <readout_value>
> 100 µM

$$$$
>  <item_smiles>
[Cl][Cu][Cl]

>  <readout_value>
> 10 µM

$$$$
>  <item_smiles>
CC1CCN(CCOc2ccc(CNc3ccc4nc(CCC5CCCCC5)[nH]c4c3)cc2)CC1

>  <readout_value>
1.87 µM

$$$$

Lookup: GI50 / CAKI-1 renal / N#Cc1cc2c(cc1Cl)Sc1nnc(Nc3cccc4ccccc34)n1S2(=O)=O
3.14 µM

Lookup: GI50 / CAKI-1 renal / CCn1ccnc1C(=O)/C=C/c1ccc(CC(=O)Nc2ccc(F)cc2)cc1
5.08 µM

Lookup: GI50 / CAKI-1 renal / O=C1c2ccccc2C(=O)c2c1cc1c(c2[N+](=O)[O-])OCO1
0.556 µM

* * *

system: HCT-116 colon; assay: NCI tumour cell line growth inhibition, 48 h
# key: entry, value: GI50

Look over these answered cases.
>  <compound>
N#CC1C(N)=NNC12Nc1ccccc1S2 (stereo not drawn)

>  <GI50>
11.5 µM

$$$$
>  <compound>
C=CCN(CC=C)C(=O)[C@H](CC)[C@@H]1CC[C@@H](C)[C@@H]([C@H](C)[C@@H](O)[C@@H](C)C(=O)[C@H](CC)C2O[C@]3(C=C[C@@H](O)[C@]4(CC[C@@](C)([C@H]5CC[C@](O)(CC)[C@H](C)O5)O4)O3)[C@H](C)C[C@@H]2C)O1 (stereo partly drawn)

>  <GI50>
2.81 µM

$$$$

Need GI50, item Cn1c(C(=O)c2cccc3ccccc23)nc2ccccc21
> 100 µM

* * *

system: CAKI-1 renal; experiment: NCI tumour cell line growth inhibition, 48 h
# key: entry, value: TGI
API: value field is a number in µM; no unit string.

>  <compound>
O=[N+]([O-])/C=C/c1ccc(Cl)cc1Cl

>  <study_system>
CAKI-1 renal

>  <TGI / µM>
29.8

$$$$
>  <compound>
Fc1ccc2nc(-c3nc(-c4ccccc4)n4ccccc34)[nH]c2c1

>  <study_system>
CAKI-1 renal

>  <TGI / µM>
15.1

$$$$
>  <compound>
CCC(C)N1CN(c2ccccc2)C2(CCN(CCCSc3ccc(F)cc3)CC2)C1=O (stereo not given)

>  <study_system>
CAKI-1 renal

>  <TGI / µM>
11

$$$$

Now take the following compound into account.
Need TGI, item CCC(=O)C(CCN1CCC(N2C(=O)C(CCC#N)c3ccccc32)CC1)(c1ccccc1)c1ccccc1 (stereo not given)
96.4

* * *

test system: COLO 205 colon; assay: NCI tumour cell line growth inhibition, 48 h
measured_endpoint: GI50

Look over these answered cases.
>  <compound>
CCn1ccnc1C(=O)/C=C/c1ccc(CC(=O)Nc2ccc(F)cc2)cc1

>  <study_system>
COLO 205 colon

>  <GI50>
4.29 µM

$$$$
>  <compound>
CN(C)CCCn1c2c(c3cc4c(cc3c1=O)OCO4)C(=O)c1ccccc1-2

>  <study_system>
COLO 205 colon

>  <GI50>
7.61 µM

$$$$
>  <compound>
O=c1[nH]c2ccccc2n1C1CCN(CCCC(c2ccc(F)cc2)c2ccc(F)cc2)CC1

>  <study_system>
COLO 205 colon

>  <GI50>
1.31 µM

$$$$
>  <compound>
CC1SC(c2ccc(Cl)cc2)N(CCc2cccs2)C1=O (stereo not drawn)

>  <study_system>
COLO 205 colon

>  <GI50>
1.63 µM

$$$$
>  <compound>
O=S(=O)(NCCCNc1cc(-c2cn(-c3ccccc3)nc2-c2cccc(O)c2)ccn1)c1ccc(F)cc1

>  <study_system>
COLO 205 colon

>  <GI50>
1.96 µM

$$$$

Lookup: GI50 / COLO 205 colon / NCc1ccc(-c2nc(-c3ccc(Cl)c(O)c3)c(-c3ccncc3)[nH]2)cc1
> 25 µM

Lookup: GI50 / COLO 205 colon / N#C/C(=C\c1cc2ccc(N3CCC3)cc2oc1=O)C(=O)N(CC(=O)O)CC(=O)O
> 100 µM

Lookup: GI50 / COLO 205 colon / C=CC[N+]1(CC)CCN=C1CCCCCCCCCCCCCCCCC (stereo not drawn)
0.651 µM

* * *

tested on: MDA-N; assay: NCI tumour cell line growth inhibition, 48 h
measured_endpoint: TGI

>  <compound>
CSc1c(C#N)c(S)n(-c2ccc(Cl)cc2)c(=O)c1C#N

>  <TGI>
> 100 µM

$$$$
>  <compound>
O=C(NCCCCCCCN1CCCCCCC1)C(C1CCCCC1)C1CCCCC1

>  <TGI>
21.8 µM

$$$$

Now take the following compound into account.
Need TGI, item O=c1cc(CNC2CC3CCC2C3)[nH]c(=O)[nH]1 (stereo not drawn)
> 100 µM

* * *

# key: entry, value: TGI
tested on: K-562 leukemia; assay: NCI tumour cell line growth inhibition, 48 h

Look over these answered cases.
>  <molecule>
Nc1n[nH]c(CCCCCCCc2nc(N)n[nH]2)n1

>  <TGI>
> 100 µM

$$$$
>  <molecule>
Fc1ccc2nc(-c3nc(-c4ccccc4)n4ccccc34)[nH]c2c1

>  <TGI>
> 100 µM

$$$$
>  <molecule>
O=C(Cc1ccccc1)C(c1ccccc1)S(=O)(=O)c1ccccc1 (centres undefined)

>  <TGI>
> 100 µM

$$$$
>  <molecule>
O=[N+]([O-])C(=C/c1cccc2ccccc12)/C(=C\c1cccc2ccccc12)[N+](=O)[O-]

>  <TGI>
> 25.9 µM

$$$$
>  <molecule>
COc1c(CC=C(C)C)c(O)c(C(CC(C)C)c2c(O)c(CC=C(C)C)c(O)c(C(C)=O)c2O)c(O)c1C(C)=O (centres undefined)

>  <TGI>
5.71 µM

$$$$
>  <molecule>
COc1cc(C(=O)O)c(-c2cc3c(cc2C=O)OCO3)c(OC)c1OC

>  <TGI>
> 10 µM

$$$$
>  <molecule>
CC(=O)N(O)c1ccc(/C=C/c2ccccc2)cc1

>  <TGI>
> 100 µM

$$$$
>  <molecule>
O=S(=O)(O)c1ccc2cc3nn(-c4ccc(/C=C/c5ccc(-n6nc7cc8ccc(S(=O)(=O)O)cc8cc7n6)cc5S(=O)(=O)O)c(S(=O)(=O)O)c4)nc3cc2c1

>  <TGI>
> 100 µM

$$$$

Need TGI, item NCc1ccc(-c2nc(-c3ccc(Cl)c(O)c3)c(-c3ccncc3)[nH]2)cc1
> 25 µM

* * *

test system: BT-549 breast; test: NCI tumour cell line growth inhibition, 48 h
# key: entry, value: TGI
API: value field is a number in µM; no unit string.

Look over these answered cases.
>  <compound>
CN(C)CCCn1c2c(c3cc4c(cc3c1=O)OCO4)C(=O)c1ccccc1-2

>  <TGI, µM>
29

$$$$
>  <compound>
c1ccc2c(CNCCN3CCNCC3)c3ccccc3c(CNCCN3CCNCC3)c2c1

>  <TGI, µM>
75.6

$$$$
>  <compound>
O=C1C(Nc2cccc(O)c2)=C(Sc2ccccc2)C(=O)N1Cc1ccccc1

>  <TGI, µM>
43.5

$$$$
>  <compound>
O=S(=O)(NCCCNc1cc(-c2cn(-c3ccccc3)nc2-c2cccc(O)c2)ccn1)c1ccc(F)cc1

>  <TGI, µM>
7.78

$$$$
>  <compound>
CCn1ccnc1C(=O)/C=C/c1ccc(CC(=O)Nc2ccc(F)cc2)cc1

>  <TGI, µM>
7.03

$$$$
>  <compound>
COC(=O)c1cc([N+](=O)[O-])cc([N+](=O)[O-])c1Cl

>  <TGI, µM>
22.6

$$$$

Need TGI, item C/C(=N\NC(=S)Nc1ccc([N+](=O)[O-])cc1)c1nc2ncccc2[nH]1
2.35

Need TGI, item O=C1/C(=C/c2ccccc2[N+](=O)[O-])COc2ccc(O)cc21
5.23

Need TGI, item C=CCN(CC=C)C(=O)[C@H](CC)[C@@H]1CC[C@@H](C)[C@@H]([C@H](C)[C@@H](O)[C@@H](C)C(=O)[C@H](CC)C2O[C@]3(C=C[C@@H](O)[C@]4(CC[C@@](C)([C@H]5CC[C@](O)(CC)[C@H](C)O5)O4)O3)[C@H](C)C[C@@H]2C)O1 (stereo not given in full)
12.3

Need TGI, item COCCOCCOCCOCCOC(=O)OC[n+]1ccc(NC(=NCCCCCCOc2ccc(Cl)cc2)NC#N)cc1
20.5
